Cited source for all entries: patent US20110144125A1

# System: rat left atria
# test_name: Spontaneous tachycardic activity (STA) in isolated rat left atria exposed to 2-APB under increased calcium load
# assay_setup: Rattus norvegicus; intact left atria exposed to BayK 8644 and 2-APB; read-out: IC50 for decrease of STA
Where a name gives a salt, the structure may show the parent alone.
readout_name: pIC50
Please treat pIC50 as minus the base-10 logarithm of the molar concentration.

// query Data request, read-out pIC50, for COc1ccc(CCN(C)CCCN2CCc3cc(OC)c(OC)cc3CC2=O)cc1OC [zatebradine, hydrochloride]
// result 4.24
